Source listed as paper PMC10397409.

experimental.system: CatSper (Homo sapiens, UniProt Q7RTX7+Q86XQ3+Q8NEC5+Q96P56)
Construct: Motile spermatozoa were selected by a ‘swim-up’ procedure; endogenous in cells; host or cells: motile human spermatozoa (swim-up) from healthy donors
test: Inhibition of P4-induced Ca2+ influx in human sperm (screen 2 inhibitors)
Assay type: cell-based
condition.summary: 3 independent experiments
Some molecules, each annotated with its measured Max P4 inhibition (%) (± SD).

| molecule | Max P4 inhibition (%) (± SD) |
| --- | --- |
| CC(=O)O[C@H]1CC[C@@]2(C)C(=CC[C@@H]3[C@@H]2CC[C@]2(C)C(=O)CC[C@@H]32)C1 [Dehydroisoandosterone 3-acetate (DHEA), Dehydroisoandosterone 3-acetate] | 82 (±6) % |
| CC(=O)[C@H]1CC[C@H]2[C@@H]3CCC4=CC(=O)CC[C@]4(C)[C@H]3CC[C@]12C | 79 (±7) % |
| C[C@]12C/C(=C/O)C(=O)C[C@@H]1CC[C@@H]1[C@@H]2CC[C@@]2(C)[C@H]1CC[C@]2(C)O | 62 (±9) % |

* * *

Reported Emax values are given for each entry in this list.
experimental.system: CatSper (Homo sapiens, UniProt Q7RTX7+Q86XQ3+Q8NEC5+Q96P56)
Construct: Motile spermatozoa were selected by a ‘swim-up’ procedure; endogenous in cells; host or cells: motile human spermatozoa (swim-up) from healthy donors
test: Steroid-induced increase in [Ca2+]i in human sperm (Fluo-4 HTS assay, screen 1 activators)
Format: cell-based
condition.summary: maximal amplitude of steroid-induced [Ca2+]i increase, relative to P4; 3 independent experiments; read-out: Max amplitude (%) (± SD)

| compound | result.unit | Emax |
| --- | --- | --- |
| C[C@]12CC[C@@H]3c4ccc(O)cc4C[C@@H](CCCCCCCCC[S+]([O-])CCCC(F)(F)C(F)(F)F)[C@H]3[C@@H]1CC[C@@H]2O (stereo partly shown) | % | 28 |
| C[C@]12CC[C@@H]3c4ccc(O)cc4CC[C@H]3[C@@H]1CCC2=O | % | 49 |
| CC(=O)O[C@]1(C(C)=O)CC[C@H]2[C@@H]3C=C(C)C4=CC(=O)CC[C@@H]4[C@H]3CC[C@@]21C [nomegestrol acetate] | % | 19 |
| C[C@]12C[C@H](O)[C@H]3[C@@H](CCC4=CC(=O)CC[C@@]43C)[C@@H]1CC[C@@H]2C(=O)CO | % | 55 |
| CC(=O)[C@@]1(O)CC[C@H]2[C@@H]3C[C@H](C)C4=CC(=O)C=C[C@]4(C)[C@@]3(F)[C@@H](O)C[C@@]21C | % | 42 |
| C#C[C@]1(OC(C)=O)CC[C@H]2[C@@H]3CCC4=C[C@@H](OC(C)=O)CC[C@@H]4[C@H]3CC[C@@]21C [ethynodiol diacetate] | % | 35 |
| C[C@]12CC[C@@H]3c4ccc(OS(=O)(=O)O)cc4CC[C@H]3[C@@H]1CCC2=O [Estropipate] | % | 106 |

* * *

experimental.system: CatSper (Homo sapiens, UniProt Q7RTX7+Q86XQ3+Q8NEC5+Q96P56)
Construct: Motile spermatozoa were selected by a ‘swim-up’ procedure; endogenous in cells; host or cells: motile human spermatozoa (swim-up) from healthy donors
test: Steroid-induced increase in [Ca2+]i in human sperm (Fluo-4 HTS assay, screen 1 activators)
Format: cell-based

| smiles.structure | EC50 (nM) |
| --- | --- |
| C[C@]12CC[C@H]3C(=CCc4cc(O)ccc43)[C@@H]1CCC2=O | 999 |
